- target.under.test: endogenous GUS activity in whole E. coli cells (Escherichia coli, UniProt P05804)
- Sequence (P05804 whole entry): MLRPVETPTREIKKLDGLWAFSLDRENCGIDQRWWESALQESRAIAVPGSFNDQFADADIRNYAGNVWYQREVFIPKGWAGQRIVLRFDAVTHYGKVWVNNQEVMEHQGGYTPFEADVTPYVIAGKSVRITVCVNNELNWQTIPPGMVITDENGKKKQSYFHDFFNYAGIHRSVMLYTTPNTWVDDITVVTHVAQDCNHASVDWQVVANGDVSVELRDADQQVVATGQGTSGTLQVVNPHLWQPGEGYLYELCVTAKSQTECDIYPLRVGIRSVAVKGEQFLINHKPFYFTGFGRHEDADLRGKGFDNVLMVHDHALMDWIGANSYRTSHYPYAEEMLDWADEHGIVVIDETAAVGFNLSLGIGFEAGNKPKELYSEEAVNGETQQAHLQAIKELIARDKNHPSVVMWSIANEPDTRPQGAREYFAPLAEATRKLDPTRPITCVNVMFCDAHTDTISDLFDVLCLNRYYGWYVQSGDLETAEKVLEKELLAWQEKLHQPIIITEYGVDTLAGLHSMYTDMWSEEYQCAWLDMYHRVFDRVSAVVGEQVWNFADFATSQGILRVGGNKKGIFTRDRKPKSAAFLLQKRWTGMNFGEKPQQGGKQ
- assay.explanation: GUS cell based assay (whole E. coli cells, 4MUG)
- test.context: running text; read-out: IC50 in the E. coli cell-based assay
I'd be grateful if you could share measured IC50 for these entries.
Express your answer as a number followed by its unit.

- molecule: "O=C(CCNNC(=O)c1ccncc1)NCc1ccccc1 [Nialamide, nialamide]"
  IC50: "0.017 µM"

Read the next record carefully.
Write down measured IC50 (endogenous GUS activity in whole E. coli cells (Escherichia coli, UniProt P05804)) for this molecule. Cc1cc(C(=O)NNCc2ccccc2)no1 [Isocarboxazid, isocarboxazid]
0.336 µM
